Molecular target: T1, 人4-1BB (human, UniProt Q07011 24-255)
T1 construct: whole, on cells; also called TNFRSF9; CD137
T1 sequence (Q07011 24-255): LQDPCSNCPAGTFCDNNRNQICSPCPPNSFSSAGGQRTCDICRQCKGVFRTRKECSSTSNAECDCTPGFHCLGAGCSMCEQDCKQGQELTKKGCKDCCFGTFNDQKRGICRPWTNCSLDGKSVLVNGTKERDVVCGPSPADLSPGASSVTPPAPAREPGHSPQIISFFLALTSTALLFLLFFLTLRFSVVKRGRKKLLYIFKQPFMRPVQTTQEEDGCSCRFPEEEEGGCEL
Assay: FACS on HEK293 cells expressing human 4-1BB, 1.0 ug/ml
attribute measured: binding result

379E7A6-VH1-VL1 (antibody, IgG4, V domains shown, Humanized mAb; Only VH and VL are tied to it) VH: EVQLLESGGGLVQPGGSLRLSCAASGFTFSDYGMAWVRQAPGKGLEWVSFISNVAYSKFYVDTVTGRFTISRDNSKNTLYLQMNSLRAEDTAVYYCARDELGRFPYWGQGTLVTVSS VL: DIQMTQSPSSLSASVGDRVTITCHVSHNINIWLNWYQQKPGKAPKLLIYKASNLHTGVPSRFSGSGSGTDFTFTISSLQPEDIATYYCQQGQTFPRTFGGGTKVEIK :: binds
367C3A3-VH1-VL2 (antibody, IgG4, V domains shown, Humanized mAb; Only VH and VL are tied to it) VH: QVQLVQSGSELKKPGASVKVSCKASGYTFTDYSMHWVRQAPGQGLEWMGWINTETGEPTYADDFKGRFVFSLDTSVSTAYLQISSLKAEDTAVYYCARYDYAMDYWGQGTLVTVSS VL: DIQMTQSPSTLSASVGDRVTITCKASQDVSSAVAWYQQKSGKAPKLLIYWASIRHTGVPSRFSGSGSGTEFTLTISSLQPDDFATYYCQQRYTTPPTFGGGTKVEIK :: binds
382A3E3-VH1-VL2 (antibody, V domains shown, Humanized mAb expressed in CHO-3E7) VH: EVQLVESGGGLVQPGGSLRLSCAASGFTFSDYGMSWVRQAPGKGLEWVSFISNVAYGIFYADTVTGRFTISRDNAKNSLYLQMNSLRAEDTAVYYCARDELGRFDYWGQGTLVTVSS VL: DIQMTQSPSTLSASVGDRVTITCHVSQNINIWLSWYQQKPGKAPKLLIYKASNLHTGVPSRFSGSGSGTEFTLTISSLQPDDFATYYCQQGQTFPRTFGGGTKVEIK :: binds
